# TARGET SYSTEM: T1, human IGF1R (insulin-like growth factor 1 receptor) on cells (human, UniProt P08069 31-1367)
# T1 construct: also called hIGF1R; CHO-S-hIGF1R cells
# T1 sequence (P08069 31-1367 limits assumed): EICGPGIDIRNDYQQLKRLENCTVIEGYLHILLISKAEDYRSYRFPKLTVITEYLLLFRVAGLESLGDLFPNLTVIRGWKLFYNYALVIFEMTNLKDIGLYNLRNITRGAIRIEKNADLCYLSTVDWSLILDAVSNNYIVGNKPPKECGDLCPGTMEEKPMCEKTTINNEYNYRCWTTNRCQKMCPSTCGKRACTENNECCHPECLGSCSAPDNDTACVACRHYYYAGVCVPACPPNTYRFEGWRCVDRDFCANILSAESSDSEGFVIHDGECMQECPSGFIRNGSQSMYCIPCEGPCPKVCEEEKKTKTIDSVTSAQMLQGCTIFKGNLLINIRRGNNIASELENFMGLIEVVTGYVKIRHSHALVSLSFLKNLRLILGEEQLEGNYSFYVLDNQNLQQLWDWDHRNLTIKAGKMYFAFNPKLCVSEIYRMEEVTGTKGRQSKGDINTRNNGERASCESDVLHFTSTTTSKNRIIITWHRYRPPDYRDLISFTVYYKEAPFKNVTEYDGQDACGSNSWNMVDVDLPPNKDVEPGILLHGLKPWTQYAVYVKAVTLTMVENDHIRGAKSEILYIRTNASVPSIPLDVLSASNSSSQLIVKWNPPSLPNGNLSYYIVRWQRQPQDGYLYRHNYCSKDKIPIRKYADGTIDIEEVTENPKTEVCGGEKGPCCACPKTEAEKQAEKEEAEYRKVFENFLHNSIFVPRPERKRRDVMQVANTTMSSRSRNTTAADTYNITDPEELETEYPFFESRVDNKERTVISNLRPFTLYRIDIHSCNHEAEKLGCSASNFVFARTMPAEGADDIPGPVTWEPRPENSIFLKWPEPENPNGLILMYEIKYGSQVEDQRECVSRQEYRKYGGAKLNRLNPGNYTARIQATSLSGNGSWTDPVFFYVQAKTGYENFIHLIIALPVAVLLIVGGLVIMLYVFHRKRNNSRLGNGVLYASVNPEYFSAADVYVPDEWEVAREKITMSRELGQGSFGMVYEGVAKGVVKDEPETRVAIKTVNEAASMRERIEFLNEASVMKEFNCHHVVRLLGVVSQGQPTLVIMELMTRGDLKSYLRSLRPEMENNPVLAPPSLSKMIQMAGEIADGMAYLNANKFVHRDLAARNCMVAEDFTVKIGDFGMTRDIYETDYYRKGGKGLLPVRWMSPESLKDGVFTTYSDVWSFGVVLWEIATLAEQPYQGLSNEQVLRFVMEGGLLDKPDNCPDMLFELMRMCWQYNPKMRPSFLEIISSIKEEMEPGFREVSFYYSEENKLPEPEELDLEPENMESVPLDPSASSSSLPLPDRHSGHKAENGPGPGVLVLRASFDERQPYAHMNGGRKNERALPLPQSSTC
# PROCEDURE SUMMARY: flow cytometry on CHO-S-hIGF1R cells, antibody 20 µg/mL

BINDER: anti-IGF1R antibody 10G1 (antibody, human IgG1, V domains shown) VH: QVQLVESGGGLVKPGGSLRLSCAASEFTFSDYYMSWIRQSPGKGLEWVSYISNSGSFTNYADSVKGRFTISRDNAKNSLYLQMNSLRAEDSAIYYCVRDQAPVTSKYYYYGMDVWGQGTTVTVSS VL: EIVLTQSPSSLSASVGDRVTITCRASQGIRNDFAWYQQKPGKAPKRLIYAASRLQRGVPSRFSGSGSGTEFTLTISSLQPEDFATYYCLQHNSYPYTFGQGTKLEIK
Percentage of positive cells [%]: 46.4
